Molecular target: Beta-lactamase (Escherichia coli (strain K12))
Assay: qHTS Inhibitors of AmpC Beta-Lactamase (assay without detergent); further: nearly all actives have a fitted effect of over 20% in size
Conditions: AmpC nitrocefin hydrolysis, absorbance 480 nm, 0.0001% Triton; series mostly up to 57.1 µM
Hit rate of the full screen: of about 330,000 compounds, about 1,700 (0.52%) were called active. The call rests on the fitted dose curve; in most records, active means well fitted inhibition curve with a large enough effect; inconclusive means small, poorly fitted or top-dose-only effect; inactive means no such curve, though single readings can be large or run the other way. This excerpt belongs to a sample that is enriched for actives.
Parameter call: string, one of y = active, n = inactive

Solved entries:
[[record]]
compound = "O=C(O)C1CCCN(S(=O)(=O)c2cccc3cccnc23)C1 (stereo unspecified)"
answer_label = "n"

[[record]]
compound = "C=CCNCCCCOc1ccccc1"
answer_label = "n"

[[record]]
compound = "O=C(NCCc1csc(-c2ccccc2)n1)c1ccccc1F"
answer_label = "n"

[[record]]
compound = "COc1ccccc1CNC(=O)C1CCCN(S(=O)(=O)c2cccc3cccnc23)C1 (stereo unspecified)"
answer_label = "y"

[[record]]
compound = "COc1ccc(N2CCN(C(=O)CNC(=O)c3ccc(Br)o3)CC2)cc1"
answer_label = "n"


Turning now to a further compound:
In: Outcome? COc1ccc(-c2nc(CCNC(=O)c3ccc(Br)o3)cs2)cc1
Out: y

----------
Molecular target: Beta-lactamase (Escherichia coli (strain K12))
Experiment: qHTS Inhibitors of AmpC Beta-Lactamase (assay without detergent); further: nearly all actives have a fitted effect of over 20% in size
Settings: AmpC nitrocefin hydrolysis, absorbance 480 nm, 0.0001% Triton; series mostly up to 57.1 µM
Screen size: about 330,000 compounds; about 1,700 (0.52%) were called active. The call rests on the fitted dose curve; in most records, active means well fitted inhibition curve with a large enough effect; inconclusive means small, poorly fitted or top-dose-only effect; inactive means no such curve, though single readings can be large or run the other way. This is one part of a sample in which actives are shown more often than they occur.
Parameter call: string, one of active, inactive

[[record]]
compound = "Cc1csc(=O)n1CC(=O)Nc1ccc(S(C)(=O)=O)cc1"
answer_label = "inactive"


In: Outcome? Cc1ccccc1C(=O)OC1OC(=O)C(Cl)=C1Nc1ccccc1 (stereo not given)
Out: active

In: Outcome? Nc1cc(N)nc(SCC(=O)Nc2cccc(S(=O)(=O)N3CCCCC3)c2)n1
Out: active

In: Outcome? CCN(CC)S(=O)(=O)c1ccc(CNC(=O)CN2C(=O)NC3(CCc4ccccc43)C2=O)cc1 (stereo not given)
Out: inactive

In: Outcome? Cn1nnnc1SCC(=O)Nc1cccc(S(=O)(=O)N2CCCCC2)c1
Out: inactive

----------
Biological target: Beta-lactamase (Escherichia coli (strain K12))
Assay: qHTS Inhibitors of AmpC Beta-Lactamase (assay without detergent); further: nearly all actives have a fitted effect of over 20% in size
Details: AmpC nitrocefin hydrolysis, absorbance 480 nm, 0.0001% Triton; series mostly up to 57.1 µM
The whole screen tested about 330,000 compounds, of which about 1,700 (0.52%) were called active. Calls come from the whole dose curve; as a rule, active = well fitted inhibition curve with a large enough effect; inconclusive = small, poorly fitted or top-dose-only effect; inactive = no such curve, though single readings can be large or run the other way. This excerpt belongs to a sample that is enriched for actives.
Parameter call: string, one of true for active, false for inactive

[[record]]
molecule = "COc1cccc(OC)c1C(=O)Nc1c(C(=O)N2CCN(c3ccccn3)CC2)oc2ccccc12"
answer_label = "false"


In: Outcome? O=C(Nc1ccc(S(=O)(=O)N2CCc3ccccc3C2)cc1)c1ccccc1
Out: false

In: Outcome? CCCc1noc2c1/C(=N\O)CCC2
Out: false

In: Outcome? COc1ccc(CCN2C(=O)N(c3ccc(OC)cc3)C(=O)C2CC(=O)Nc2ccc(OC)cc2)cc1 (stereo not given)
Out: false

In: Outcome? C=CCN(CC=C)S(=O)(=O)c1ccc(C(=O)Nc2nc3c(s2)CCc2ccccc2-3)cc1
Out: true

----------
Biological target: Beta-lactamase (Escherichia coli (strain K12))
Test: qHTS Inhibitors of AmpC Beta-Lactamase (assay without detergent); further: nearly all actives have a fitted effect of over 20% in size
Settings: AmpC nitrocefin hydrolysis, absorbance 480 nm, 0.0001% Triton; series mostly up to 57.1 µM
The campaign covered roughly 330,000 compounds. About 1,700 (0.52%) were called active. Calls follow the shape of the dose curve; as a rule, active = well fitted inhibition curve with a large enough effect; inconclusive = small, poorly fitted or top-dose-only effect; inactive = no such curve, though single readings can be large or run the other way. What follows is part of a selection rich in actives, with near analogues and random picks from the rest.
Parameter call: string, one of active, inactive

Solved entries:
[[record]]
mol_smiles = "Nc1cc(N2CCCCCC2)c2nonc2c1[N+](=O)[O-]"
test_system = "Beta-lactamase (Escherichia coli (strain K12))"
answer_label = "inactive"

[[record]]
mol_smiles = "N#Cc1ccccc1Sc1ccccc1C(=O)OCC(=O)NC1CCCCC1"
test_system = "Beta-lactamase (Escherichia coli (strain K12))"
answer_label = "active"

[[record]]
mol_smiles = "O=C(COC(=O)c1ccc(NS(=O)(=O)c2cccs2)cc1O)Nc1ccc(F)cc1"
test_system = "Beta-lactamase (Escherichia coli (strain K12))"
answer_label = "active"

[[record]]
mol_smiles = "COc1cccc(N(CC(=O)NCc2ccccc2)C(=O)CCC(=O)Nc2nccs2)c1"
test_system = "Beta-lactamase (Escherichia coli (strain K12))"
answer_label = "inactive"

[[record]]
mol_smiles = "O=C(NC1CCCCC1)c1cc(C2CC2)on1"
test_system = "Beta-lactamase (Escherichia coli (strain K12))"
answer_label = "inactive"

[[record]]
mol_smiles = "O=C(COC(=O)c1ccccc1Cl)NC1CCCCCCC1"
test_system = "Beta-lactamase (Escherichia coli (strain K12))"
answer_label = "inactive"


In: Outcome? Cc1cc2ncn(CCCCOc3ccccc3)c2cc1C
Out: inactive

In: Outcome? Cc1ccc(-n2c(C)cc(C(=O)CSc3nnc4ccccn34)c2C)cc1
Out: inactive

In: Outcome? O=C(CSc1nnc2ccccn12)c1ccccc1
Out: active

In: Outcome? CCN=C1S/C(=C\c2cc(Br)ccc2OCC(=O)OCC)C(=O)N1CC
Out: inactive

In: Outcome? CCc1ccc(NC(=O)COC(=O)c2cccs2)cc1
Out: inactive

In: Outcome? Cc1nc(SCC(=O)N2CC(=O)Nc3ccccc32)c2c(C)c(C)sc2n1
Out: inactive

----------
Biological target: Beta-lactamase (Escherichia coli (strain K12))
Test: qHTS Inhibitors of AmpC Beta-Lactamase (assay without detergent); further: nearly all actives have a fitted effect of over 20% in size
Settings: AmpC nitrocefin hydrolysis, absorbance 480 nm, 0.0001% Triton; series mostly up to 57.1 µM
Protocol: NIH Molecular Libraries Probe Production Network [MLPCN] NIH Chemical Genomics Center [NCGC] Assay Provider: Professor Brian Shoichet, UCSF Assay Overview: This aggregation profiling approach exploits the sensitivity of aggregate formation to detergent. Inhibition of b-lactamase is measured in the presence and absence of 0.01% Triton X-100. This particular assay had the prescence of 0.01% Triton X-100. […] AmpC activity was measured by following the absorbance at 480 nm. […]
In all, about 330,000 compounds went through this assay and about 1,700 (0.52%) were called active. Calls follow the shape of the dose curve; as a rule, active = well fitted inhibition curve with a large enough effect; inconclusive = small, poorly fitted or top-dose-only effect; inactive = no such curve, though single readings can be large or run the other way. The list comes from a sample in which actives are over-represented; it also holds close analogues and randomly drawn compounds.
Parameter call: string, one of 1.0 for active, 0.0 for inactive

[[record]]
compound = "COC(=O)C1=C(Nc2ccc(OC)cc2)C=C(C)C(C(=O)OC)C1c1ccc(C)cc1 (centres undefined)"
test_system = "Beta-lactamase (Escherichia coli (strain K12))"
answer_label = 0.0

[[record]]
compound = "O=C1CCN(Cc2ccc([N+](=O)[O-])cc2)CCN1[C@H](CO)Cc1ccccc1"
test_system = "Beta-lactamase (Escherichia coli (strain K12))"
answer_label = 0.0


Turning now to a further compound:
In: Outcome? CCOC1CS(=O)(=O)CC1OCC (centres undefined)
Out: 0.0

----------
Target: Beta-lactamase (Escherichia coli (strain K12))
Assay: qHTS Inhibitors of AmpC Beta-Lactamase (assay without detergent); further: nearly all actives have a fitted effect of over 20% in size
Details: AmpC nitrocefin hydrolysis, absorbance 480 nm, 0.0001% Triton; series mostly up to 57.1 µM
The whole screen tested about 330,000 compounds, of which about 1,700 (0.52%) were called active. Calls follow the shape of the dose curve; as a rule, active = well fitted inhibition curve with a large enough effect; inconclusive = small, poorly fitted or top-dose-only effect; inactive = no such curve, though single readings can be large or run the other way. For the sample, actives were picked, then their nearest neighbours and some compounds at random.
Parameter call: string, one of 1.0 for active, 0.0 for inactive

Solved entries:
[[record]]
mol_smiles = "Cc1cc2ccccc2n1CCNC(=O)COc1ccc2ccccc2c1"
answer_label = 1.0

[[record]]
mol_smiles = "O=c1cc(O)nc(SCc2ccccc2Cl)[nH]1"
answer_label = 1.0


Turning now to a further molecule:
In: Outcome? COc1cc(Cl)c(S(=O)(=O)N2CCN(Cc3ccc4c(c3)OCO4)CC2)cc1Cl
Out: 0.0

----------
Target: Beta-lactamase (Escherichia coli (strain K12)) (UniProt P00811)
Sequence (P00811 whole entry, looked up): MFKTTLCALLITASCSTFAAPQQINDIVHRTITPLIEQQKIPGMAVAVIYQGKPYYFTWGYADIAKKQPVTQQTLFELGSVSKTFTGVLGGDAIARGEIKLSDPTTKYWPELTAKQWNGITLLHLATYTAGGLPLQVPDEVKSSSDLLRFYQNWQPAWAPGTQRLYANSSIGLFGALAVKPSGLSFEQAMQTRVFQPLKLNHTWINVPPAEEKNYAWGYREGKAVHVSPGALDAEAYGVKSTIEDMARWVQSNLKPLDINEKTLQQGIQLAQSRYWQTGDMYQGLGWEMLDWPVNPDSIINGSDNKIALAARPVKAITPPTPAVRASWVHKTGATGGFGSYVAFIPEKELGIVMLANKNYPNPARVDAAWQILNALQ
Assay: qHTS Inhibitors of AmpC Beta-Lactamase (assay without detergent); further: nearly all actives have a fitted effect of over 20% in size
Details: AmpC nitrocefin hydrolysis, absorbance 480 nm, 0.0001% Triton; series mostly up to 57.1 µM
About 1,700 (0.52%) of roughly 330,000 compounds were called active. Calls follow the shape of the dose curve; as a rule, active = well fitted inhibition curve with a large enough effect; inconclusive = small, poorly fitted or top-dose-only effect; inactive = no such curve, though single readings can be large or run the other way. The sample holds actives, similar compounds and a random draw of the others, so the mix is not that of the screen.
Parameter call: string, one of true (active), false (inactive)

Solved entries:
[[record]]
molecule = "CC[N+]1(CC)CC2=Cc3ccccc3CC2C1 (stereo not given)"
test_system = "Beta-lactamase (Escherichia coli (strain K12)) (UniProt P00811)"
answer_label = "false"

[[record]]
molecule = "CN(CC(=O)NCC(c1ccccc1)N1CCCC1)S(=O)(=O)c1ccc(Cl)cc1 (stereo not given)"
test_system = "Beta-lactamase (Escherichia coli (strain K12)) (UniProt P00811)"
answer_label = "false"

[[record]]
molecule = "CC(C)CCn1c(CN(C)Cc2ccccc2)nc2c1c(=O)n(C)c(=O)n2C"
test_system = "Beta-lactamase (Escherichia coli (strain K12)) (UniProt P00811)"
answer_label = "false"

[[record]]
molecule = "CN1C(=O)C(CC(N)=O)N(NC(=O)c2ccc(Cl)cc2)C1=S (stereo not given)"
test_system = "Beta-lactamase (Escherichia coli (strain K12)) (UniProt P00811)"
answer_label = "false"


Turning now to a further molecule:
In: Outcome? Cc1ccc(NC(=O)CC2C(=O)N(Cc3ccccc3)C(=S)N2NC(=O)c2cccc(F)c2)c(C)c1 (stereo not given)
Out: true
